assay: Illumination stability experiment (HPLC content); type: physicochemical; conditions: batch 2; 24 h; visible light 5000 ± 500 lx, ultraviolet light 250 μW/cm^2
OUTCOME_MEASURE: Liquid chromatography content (220 nM, %)
Give bare numbers, in %.

Please review the entries below; each comes with its answer.
INSERT INTO measurements (compound, observed_result) VALUES
  ('CC(C)c1c(O)cc(/C=C/c2cccc(F)n2)c(F)c1O', 88.31),
  ('CC(C)c1c(O)cc(/C=C/c2ccc(F)cn2)c(F)c1O', 97.46),
  ('CC(C)c1c(O)cc(/C=C/c2ccc(F)cc2)c(F)c1O', 99.22),
  ('CC(C)c1c(O)cc(/C=C/c2cccc(F)n2)cc1O [Comparative Example 1, reference compound]', 82.13),
  ('CC(C)c1c(O)cc(/C=C/c2ncccc2F)c(F)c1O', 91.56);

Next up:
Request: Given the compound "CC(C)c1c(O)cc(/C=C/c2ccccc2F)c(F)c1O" , what is its reported Liquid chromatography content (220 nM, %)?
Result: 98.27
